Taken from PubChem BioAssay (NCATS).

- TARGET_ENTITY: Cytochrome P450 1A2 (Homo sapiens) (UniProt P05177)
- Sequence (P05177 whole entry, looked up): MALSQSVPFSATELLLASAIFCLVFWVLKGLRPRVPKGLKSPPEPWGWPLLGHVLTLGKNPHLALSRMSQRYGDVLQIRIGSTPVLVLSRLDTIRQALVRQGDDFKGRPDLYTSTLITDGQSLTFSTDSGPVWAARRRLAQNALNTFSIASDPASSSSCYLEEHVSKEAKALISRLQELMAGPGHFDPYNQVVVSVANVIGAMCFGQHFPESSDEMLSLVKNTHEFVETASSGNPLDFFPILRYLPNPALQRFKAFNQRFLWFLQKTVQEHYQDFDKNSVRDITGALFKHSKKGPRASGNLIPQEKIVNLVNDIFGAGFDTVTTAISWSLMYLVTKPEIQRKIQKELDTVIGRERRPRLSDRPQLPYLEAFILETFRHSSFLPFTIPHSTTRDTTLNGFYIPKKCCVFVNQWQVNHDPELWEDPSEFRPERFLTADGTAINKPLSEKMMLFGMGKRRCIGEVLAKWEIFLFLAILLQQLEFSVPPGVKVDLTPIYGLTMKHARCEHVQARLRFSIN
- MEASUREMENT_DESCRIPTION: p450-cyp1a2 (AID 410); note: potency is the fitted concentration of half-maximal effect
- MEASUREMENT_CONTEXT: recombinant CYP1A2, luciferin-ME demethylation, luminescence; series mostly up to 57 µM
Records with an inconclusive call do not appear. The source made the active and inactive calls. Calls come from the whole dose curve.
PROPERTY_LABEL: Potency

CS(=O)(=O)Nc1cccc(-c2nc(N3CCNCC3)c3ccccc3n2)c1 :: 20 µM (active)
O=C(c1csnn1)N1CCC2(CC1)CCN(c1ccncc1)CC2 :: inactive
CN(C)c1ccc(-c2cncnc2NCc2cccnc2)cc1 :: 1 µM (active)
COc1ccc(NC(=O)N2CCCC3(CCN(C(=O)c4cccn4C)CC3)C2)cc1 :: 25.1 µM (active)
O=S(=O)(c1ccccc1)N1CCC2(CCCN(c3ccccn3)C2)CC1 :: 7.94 µM (active)
Cc1cnc(CNc2nc(-c3ccccc3C)nc3ccccc23)cn1 :: 3.16 µM (active)
O=C(c1ccncc1)N1CCC2(CC1)CN(c1ccc(-c3ccccc3)cc1)C2 :: inactive
Clc1ccccc1-c1cc(NCc2ccccc2)ncn1 :: 3.98 µM (active)
COc1ccc2[nH]cc(CCNc3nc(-c4ccoc4)nc4ccccc34)c2c1 :: 0.398 µM (active)
CN1CCCC2(CCN(C(=O)c3cccc(F)c3)CC2)C1 :: 31.6 µM (active)

Task item: # Potency lookup, item CN1CCN(c2ncncc2-c2ccccc2Cl)CC1
Reply: 2.51 µM (active)

Task item: # Potency lookup, item O=C(Oc1ccccc1)N1CCC2(CC1)CCN(c1ccncc1)CC2
Reply: inactive

Task item: # Potency lookup, item CN(C)Cc1ccccc1-c1ccc2ncnc(N(C)Cc3ccco3)c2c1
Reply: 2 µM (active)

Task item: # Potency lookup, item Cc1cc(C)c(S(=O)(=O)Nc2ccccc2C(F)(F)F)c(C)c1
Reply: 31.6 µM (active)

Task item: # Potency lookup, item O=c1c(-c2ccc(Cl)cc2)nc2cnc(N3CCOCC3)nc2n1C1CC1
Reply: 1.26 µM (active)

Task item: # Potency lookup, item COCCn1c(=O)c(C)nc2cnc(Nc3cccc(OC)c3)nc21
Reply: 1 µM (active)

Task item: # Potency lookup, item Cc1nc2cnc(Nc3ccccc3)nc2n(Cc2cccs2)c1=O
Reply: 1.58 µM (active)

Task item: # Potency lookup, item COc1ccccc1CNc1nc(-c2ccc(N(C)C)cc2)nc2ccccc12
Reply: 2.51 µM (active)

Task item: # Potency lookup, item Cc1ccccc1-c1ccc2ncnc(NCc3cccnc3)c2c1
Reply: 0.251 µM (active)

Task item: # Potency lookup, item COc1cccc(Cn2c(=O)c(-c3cccs3)nc3cnc(N4CCNCC4)nc32)c1
Reply: 15.8 µM (active)

* * *

- MEASUREMENT_DESCRIPTION: qHTS Assay for Lipid Storage Modulators (AID 1519); note: % is set by controls: 0 for no effect and ±100 for the full control effect
- MEASUREMENT_CONTEXT: Drosophila S3 cells, BODIPY lipid droplet/cell ratio, laser cytometry; at 57.5 µM (top of the series); cells loaded with oleic acid
- Description: NIH Molecular Libraries Probe Production Centers Network [MLPCN] NIH Chemical Genomics Center [NCGC] Assay Submitter (PI): Beller, Mathias; Max-Planck-Institut fur Biophysikalische Chemie […] We dispensed 4 uL of cells at 1.25 x 10^6 cells/mL into LoBase Aurora COC 1,536-well plates (black walled, clear bottom) with a bottle-valve solenoid-based dispenser (Aurora) to obtain 5,000 cells/well. […] The ratio of the total intensity in PMT channel 1 over total intensity of channel 3 was also calculated. […]
Results filed as inconclusive are left out.
PROPERTY_LABEL: activity change, negative = inhibition (%)
The reply should contain only the number, in %.

Example cases with answers are listed next.
COCC(=O)N1CCC[C@@]2(CCN(c3ccccn3)C2)C1 :: 2.24
Cn1cccc1C(=O)N1CCC2(CCCN(Cc3ccccc3)C2)CC1 :: 3.59
c1ccc(Nc2ncnc3ccc(-c4ccc5c(c4)OCO5)cc23)cc1 :: 5.31

Task item: # activity change, negative = inhibition lookup, item N#C/C(=C\c1ccc(O)c(O)c1)C(=O)NCCCCc1ccccc1
Reply: -2.23

Task item: # activity change, negative = inhibition lookup, item N#CCCn1c(=O)c(-c2cc(F)cc(F)c2)nc2cnc(Oc3ccccc3)nc21
Reply: 7.78

Task item: # activity change, negative = inhibition lookup, item COc1ccc(NC(=O)N2CC[C@@]3(CCCN(C(=O)c4ccncc4)C3)C2)cc1
Reply: 2.47
